# target of assay: Tyrosyl-tRNA synthetase, putative (Trypanosoma cruzi (strain CL Brener)) (UniProt Q4DSP6)
# Sequence (Q4DSP6 as listed by the source): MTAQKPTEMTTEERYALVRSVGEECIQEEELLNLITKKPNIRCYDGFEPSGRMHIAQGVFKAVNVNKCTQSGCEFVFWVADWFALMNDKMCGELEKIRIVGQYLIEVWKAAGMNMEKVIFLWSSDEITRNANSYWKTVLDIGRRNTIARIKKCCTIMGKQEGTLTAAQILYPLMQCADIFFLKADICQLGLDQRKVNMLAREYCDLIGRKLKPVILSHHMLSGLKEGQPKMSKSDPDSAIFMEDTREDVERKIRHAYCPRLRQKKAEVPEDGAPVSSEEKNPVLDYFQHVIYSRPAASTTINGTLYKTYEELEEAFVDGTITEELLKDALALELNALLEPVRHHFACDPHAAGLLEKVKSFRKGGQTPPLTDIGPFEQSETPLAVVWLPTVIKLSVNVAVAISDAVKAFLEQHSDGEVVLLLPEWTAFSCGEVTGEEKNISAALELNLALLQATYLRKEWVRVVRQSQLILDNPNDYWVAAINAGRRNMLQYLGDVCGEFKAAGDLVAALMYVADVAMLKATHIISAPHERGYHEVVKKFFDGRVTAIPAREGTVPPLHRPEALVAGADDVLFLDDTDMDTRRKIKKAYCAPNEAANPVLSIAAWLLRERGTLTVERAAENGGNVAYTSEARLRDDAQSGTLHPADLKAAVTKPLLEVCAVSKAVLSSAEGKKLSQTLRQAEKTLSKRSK
# assay procedure: Trypanosoma cruzi tyrosyl tRNA synthetase (TcYRS) _High Tyrosine SOP; also: in the data most compounds retested in dose-response had high values
# Type: functional
# Design: scale not given: direction of the effect not stated beside the values
# condition notes: 30 µM
Below, each of the compounds is paired with its reported Percent Effect value.

Past entries and their recorded results:
CNC(=O)CN1CCOCC2(CCCN(Cc3cccnc3)C2)C1 (stereo unspecified) ... 6.93%
O=C(c1cc(-n2cccc2)ccc1Cl)N1CCC2(CC1)OCCO2 ... 2.13%
COCCN1C[C@H]2[C@@H](C1)N(C(=O)COc1ccccc1)CC[C@H]2OC ... 5.79%
c1cncc(COC[C@H]2CC[C@H]3[C@H](CCN3Cc3cccs3)O2)c1 ... 7.45%
NCC1(c2cccc(C(F)(F)F)c2)CCOCC1 ... 7.92%
CN(C)c1ncc2c(n1)C1(CCN(Cc3ccccc3)C1)COC2 (stereo unspecified) ... 5.21%
CNC(=O)[C@@]12CCCN(c3ncccn3)[C@@H]1CN(C)C2 ... -4.23%
NC(=O)CN1CCCN(C(=O)Cc2ccc3c(c2)OCO3)CC1 ... 3.68%

Query: Percent Effect; subject: `O=C(N[C@H]1CN[C@H]2CCCO[C@H]21)c1cccnc1`
Result: 8.33%

Query: Then this compound: `C[C@@H]1C(=O)NC[C@H]2CN(Cc3ccsc3)C[C@H]21`
Result: 6.76%

Query: What do we get for `CN(CCc1ccc(F)cc1)Cc1nc2c(cnn2C)c(=O)[nH]1` ?
Result: 10.3%

====

# target of assay: Protein translocase subunit SecA (Escherichia coli (strain K12))
# assay procedure: Assay to Identify E. coli SecA ATPase Inhibitors
# Type: functional
# Set-up: scale not given: direction of the effect not stated beside the values
# condition notes: 30 µM
Measured potencies and affinities stand elsewhere.
experimental endpoint: Percent Effect (%)
# output: bare number, implied unit %

Answered cases to consult:
O=C(CC1CC1)N[C@@H]1CN(Cc2ccncc2)C[C@@H]2CCCO[C@@H]21 ... 0.104
COc1ccccc1C1SCC(=O)Nc2n[nH]cc21 (stereo unspecified) ... -5.34
CN1CCC2(CC1)C(=O)N(CC1CC1)c1ccccc12 ... -2.83
Cc1ccc(N2CCO[C@H]3CN(Cc4ccncc4)C[C@H]32)nn1 ... -2.06
O=C(c1cscn1)N1CCN2C[C@H](OCc3cccnc3)C[C@H]2C1 ... 4.53

For the next question, use this compound.
Query: Could you tell me which Percent Effect is on file for COc1ccc(C2SCC(=O)Nc3ccsc32)cc1 (stereo unspecified) ?
Result: -5.35

====

# target of assay: Tyrosyl-tRNA synthetase, putative (Trypanosoma cruzi (strain CL Brener))
# assay procedure: Trypanosoma cruzi tyrosyl tRNA synthetase (TcYRS) _High Tyrosine SOP; also: in the data most compounds retested in dose-response had high values
# Type: functional
# Parameters: scale not given: direction of the effect not stated beside the values
# condition notes: 30 µM
Below is a list of entries, each paired with its recorded Percent Effect value.

Query: Report Percent Effect for CCN1CCC2(CC1)CC(Nc1ncccn1)CO2 (stereo unspecified) please.
Result: 6.93%

====

# target of assay: Shiga toxin 2 (Escherichia coli O157:H7) (UniProt P09385+P09386)
# assay procedure: E. coli 0.157:H7 Shiga Toxin SOP - stx2 screening assay
# Type: functional
# Design: scale not given: direction of the effect not stated beside the values
# condition notes: 30 µM
experimental endpoint: Percent Effect
Lab note: write values as number then unit, every time.

O=C(CCCc1ncc(-c2ccccc2)o1)N1CCN(CCO)CC1 ... -44.5%
O=C(Cc1ccc2c(c1)OCCO2)NC1CCCC1 ... 3.29%
Cc1ncsc1-c1nnc(C2CCN(Cc3ccc(F)cc3)CC2)o1 ... -43.6%
Cc1cnn(CCNCc2ccc(F)cc2Cl)c1 ... -22.9%
N#CC1CCCN(c2nc(-c3ccccc3)nc3c2CCNCC3)C1 (configuration not stated) ... -18.1%

Query: API: value(readout=Percent Effect, system=Shiga toxin 2 (Escherichia coli O157:H7) (UniProt P09385+P09386)) for record `CC(=O)c1ccc(N2CCC(CO)(CCOc3ccccc3)CC2)nc1`
Result: -31.2%

Query: Repeat with `N#CC1(C(=O)N2CCN(Cc3cscn3)CC2)CCCC1`
Result: 9.21%

Query: Follow-up entry: Cc1nnc(CN2CCCC(c3cc(C(N)=O)[nH]n3)C2)o1 (configuration not stated)
Result: 4.59%

Query: Item: `O=C(Cc1ccccc1F)N1CCN(C(=O)c2ccoc2)CC1`
Result: -6.64%

Query: Record: `Cn1cc(CN2CCCC23CCN(C(=O)c2cccn2C)CC3)cn1`
Result: -10.8%

Query: Next compound: CCc1nc(CN(C(C)=O)C2CCN(Cc3cnc(C)cn3)C2)no1 (configuration not stated)
Result: -16.6%

Query: Cc1cnn(CC2CCCN2C(=O)CCc2ccsc2)c1 (configuration not stated) ?
Result: 14.6%

====

# target of assay: Shiga toxin 2 (Escherichia coli O157:H7) (UniProt P09385+P09386)
# assay procedure: E. coli 0.157:H7 Shiga Toxin SOP - stx2 screening assay
# Type: functional
# Design: scale not given: direction of the effect not stated beside the values
# condition notes: 30 µM
Decision: Percent Effect >= -20% yields Criterion met, all other cases yield Criterion not met.

Use these answered entries as a reference point.
Cc1cc(C(N)=O)ccc1NC(=O)c1nc(N2CCCC2)ncc1Cl ... Criterion not met
CCN1CCN(C(=O)c2nc(C)n(-c3ccccc3Cl)n2)CC1 ... Criterion met
Cn1cc(C[C@H]2[C@@H](O)CCN2C(=O)C2CC=CC2)cn1 ... Criterion not met
O=C(Nc1ncn(CC(=O)N2CCCCCC2)n1)C1CCCO1 (stereo unspecified) ... Criterion met
Cc1cc(C)n(CC2CCCN2CC(=O)N(C)Cc2cnn(C)c2)n1 (stereo unspecified) ... Criterion met
Cc1noc(C)c1C(=O)NCc1ccc(N2CCOC(C)C2)nc1 (stereo unspecified) ... Criterion not met

Query: Assess whether reported Percent Effect for CC(=O)N(Cc1noc(C)n1)C1CCN(Cc2ccncc2Cl)C1 (stereo unspecified) sits at -20% or higher.
Result: Criterion met

Query: What about this compound? CC(=O)N1CCc2c(nc(-c3ccncc3)nc2N(C)CC(O)CO)C1 (stereo unspecified)
Result: Criterion met

Query: Entry CCc1nccn1C1CCCN(C(=O)c2ccc3c(c2)OCO3)C1 (stereo unspecified) please
Result: Criterion met

Query: Then what about the compound CN(C)CC1CN(c2cnc3ccccc3n2)CCO1 (stereo unspecified) ?
Result: Criterion met

====

# target of assay: Aspartate--tRNA(Asp/Asn) ligase (Mycobacterium tuberculosis (strain ATCC 25618 / H37Rv)); also: in the data most compounds retested in dose-response had high values
# Sequence (whole entry): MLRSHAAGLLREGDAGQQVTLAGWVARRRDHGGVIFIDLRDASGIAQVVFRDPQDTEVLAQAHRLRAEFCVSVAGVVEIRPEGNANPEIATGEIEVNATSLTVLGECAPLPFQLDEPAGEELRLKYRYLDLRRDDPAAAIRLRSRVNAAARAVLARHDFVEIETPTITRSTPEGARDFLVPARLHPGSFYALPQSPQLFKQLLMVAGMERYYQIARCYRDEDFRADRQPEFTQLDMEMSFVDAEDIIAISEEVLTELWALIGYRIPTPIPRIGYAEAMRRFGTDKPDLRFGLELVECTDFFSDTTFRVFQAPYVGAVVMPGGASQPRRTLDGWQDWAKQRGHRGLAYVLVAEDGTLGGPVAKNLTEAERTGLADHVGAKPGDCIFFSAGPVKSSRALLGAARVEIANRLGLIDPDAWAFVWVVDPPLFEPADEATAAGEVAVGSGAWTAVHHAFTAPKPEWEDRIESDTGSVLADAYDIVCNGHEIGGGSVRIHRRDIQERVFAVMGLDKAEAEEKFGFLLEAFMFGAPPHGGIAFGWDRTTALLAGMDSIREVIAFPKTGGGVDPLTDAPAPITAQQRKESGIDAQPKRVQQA
# assay procedure: Assay for Asp RNA synthetase-1 from Mycobacterium tuberculosis
# Type: functional
# Set-up: scale not given: direction of the effect not stated beside the values
# condition notes: 30 µM
Recorded Percent Effect by entry
Numeric answer only, unit % assumed.

Some solved cases for reference:
Cc1cc(OCC(=O)N2CCCC(c3noc(C)n3)C2)no1 (centres undefined) ... -1.75
CCOc1cc(C(=O)N2CCCC(c3noc(C)n3)C2)ccn1 (centres undefined) ... 0.253
CN1CCOC(CNC(=O)CCCOc2ccccc2F)C1 (centres undefined) ... -5.14
Cn1ccnc1CN1CCCCC1Cn1cccn1 (centres undefined) ... 2.66
Cc1ccsc1[C@@H]1CCN(C(=O)CCC(=O)N2CCCCCC2)C[C@H]1O ... -0.418
CSCCCN1CC[C@@H](NC(=O)c2cnccn2)[C@H](O)C1 ... -0.39

Query: Record CN(Cc1ccc(F)cc1)C(=O)CN1CCOC(Cn2cncn2)C1 (centres undefined) : what is its Percent Effect with Aspartate--tRNA(Asp/Asn) ligase (Mycobacterium tuberculosis (strain ATCC 25618 / H37Rv))?
Result: 3.63

Query: Please do the same for `CN(CCN1CCOCC1)C(=O)CCc1cccc(Cl)c1` as well.
Result: -4.7

Query: Also need `Cc1noc(C)c1C(=O)N1C[C@H]2CCC[C@@]2(COc2ccccn2)C1` , thanks.
Result: 4.65
